Test system: CD2F1 mice, L1210 leukemia ip, survival T/C
Assay notes: NCI In Vivo Anticancer Drug Screen. Data for tumor model L1210 Leukemia (intraperitoneal) in CD2F1 (CDF1) mice
Settings: endpoint: mean survival time; dose: 12.5 mg/kg/injection; schedule: Q01DX009 (ip); vehicle: other; higher = longer survival
Inconclusive results and toxic doses are left out.
Collected T/C values appear next to each entry.

Compound	T/C
O=C(O)C(Br)C(Br)c1ccccc1[N+](=O)[O-] (centres undefined)	96 % of control
CNC(=S)NNc1ccccc1Cl	98 % of control
CCCCCCCCCCCCCCCC(=O)N(C/C=C/CN(C(=O)CCCCCCCCCCCCCCC)C(C)CCCN(CC)CC)C(C)CCCN(CC)CC (centres undefined)	97 % of control

Here is another compound to look at.
Provide only the value of recorded T/C for CCOC(=O)C1C(=O)N(C)C(=O)N1Cc1ccccc1 (centres undefined)
93 % of control
